- TEST TARGET: IKZF1 in L363 cells (Homo sapiens, UniProt Q13422+Q96SW2)
- Construct: endogenous in cells; host or cells: L363
- Sequence (Q13422 whole entry): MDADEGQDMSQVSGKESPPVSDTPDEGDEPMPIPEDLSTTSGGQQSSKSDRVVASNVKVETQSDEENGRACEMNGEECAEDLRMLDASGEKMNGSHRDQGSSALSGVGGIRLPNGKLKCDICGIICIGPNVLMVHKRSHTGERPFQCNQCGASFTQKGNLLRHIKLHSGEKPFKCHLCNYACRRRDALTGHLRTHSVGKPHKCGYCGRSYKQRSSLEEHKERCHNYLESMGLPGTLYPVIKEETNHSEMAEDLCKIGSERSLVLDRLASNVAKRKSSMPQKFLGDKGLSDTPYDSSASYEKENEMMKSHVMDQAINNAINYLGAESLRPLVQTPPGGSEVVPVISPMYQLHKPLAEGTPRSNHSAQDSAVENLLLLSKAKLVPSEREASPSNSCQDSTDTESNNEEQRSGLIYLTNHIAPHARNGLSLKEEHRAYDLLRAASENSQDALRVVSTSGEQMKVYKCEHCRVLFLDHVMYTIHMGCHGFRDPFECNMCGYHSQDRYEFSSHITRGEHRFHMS
- Sequence (Q96SW2 whole entry): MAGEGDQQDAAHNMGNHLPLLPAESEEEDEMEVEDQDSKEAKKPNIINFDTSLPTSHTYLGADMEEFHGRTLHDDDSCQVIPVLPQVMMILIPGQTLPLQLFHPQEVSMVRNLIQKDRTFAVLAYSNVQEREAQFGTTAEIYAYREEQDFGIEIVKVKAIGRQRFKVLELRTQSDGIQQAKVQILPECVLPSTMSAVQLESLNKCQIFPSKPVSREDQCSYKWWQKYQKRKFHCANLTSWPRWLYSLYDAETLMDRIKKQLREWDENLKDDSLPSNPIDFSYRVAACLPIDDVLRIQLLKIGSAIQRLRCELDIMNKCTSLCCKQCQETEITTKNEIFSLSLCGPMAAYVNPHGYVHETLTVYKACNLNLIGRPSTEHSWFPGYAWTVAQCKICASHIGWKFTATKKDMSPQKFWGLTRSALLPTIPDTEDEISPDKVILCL
- Sequence (Q16531 whole entry partner): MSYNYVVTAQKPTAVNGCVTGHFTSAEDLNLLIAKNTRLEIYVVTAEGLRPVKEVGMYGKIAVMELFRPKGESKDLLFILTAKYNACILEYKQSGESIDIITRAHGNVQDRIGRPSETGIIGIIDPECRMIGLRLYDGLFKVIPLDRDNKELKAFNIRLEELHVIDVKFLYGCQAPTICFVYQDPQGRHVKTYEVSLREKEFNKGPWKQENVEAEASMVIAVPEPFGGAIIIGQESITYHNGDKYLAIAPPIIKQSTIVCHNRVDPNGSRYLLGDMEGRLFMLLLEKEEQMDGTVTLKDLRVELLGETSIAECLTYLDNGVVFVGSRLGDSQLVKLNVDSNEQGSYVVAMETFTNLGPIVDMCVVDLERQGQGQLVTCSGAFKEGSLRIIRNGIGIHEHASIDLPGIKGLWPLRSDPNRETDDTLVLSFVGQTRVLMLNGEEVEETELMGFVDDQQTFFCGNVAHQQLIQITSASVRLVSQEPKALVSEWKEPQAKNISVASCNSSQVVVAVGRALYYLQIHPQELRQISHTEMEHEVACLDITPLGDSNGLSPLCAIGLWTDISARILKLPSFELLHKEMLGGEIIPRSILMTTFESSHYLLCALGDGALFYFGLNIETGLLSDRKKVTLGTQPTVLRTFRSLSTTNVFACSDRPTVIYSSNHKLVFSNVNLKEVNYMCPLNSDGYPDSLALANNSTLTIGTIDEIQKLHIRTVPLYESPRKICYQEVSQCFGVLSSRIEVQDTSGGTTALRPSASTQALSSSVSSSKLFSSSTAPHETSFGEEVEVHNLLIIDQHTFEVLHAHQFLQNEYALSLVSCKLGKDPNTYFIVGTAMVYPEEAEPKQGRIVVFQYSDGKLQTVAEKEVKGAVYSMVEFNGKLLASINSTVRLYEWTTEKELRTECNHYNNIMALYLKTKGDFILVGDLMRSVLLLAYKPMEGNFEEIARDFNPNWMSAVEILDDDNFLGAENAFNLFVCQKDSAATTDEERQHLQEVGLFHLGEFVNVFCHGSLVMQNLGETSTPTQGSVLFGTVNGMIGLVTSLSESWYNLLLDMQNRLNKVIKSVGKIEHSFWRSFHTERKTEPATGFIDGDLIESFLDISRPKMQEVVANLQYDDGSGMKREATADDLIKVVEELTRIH
- RUN DESCRIPTION: Degradation of IKZF1 in L363 cells (Western blot)
- Format: cell-based
- REPORTED CONDITIONS: 1000 nM, 16 hours
Exercise: state measured IKZF1 degradation rate for each of the compounds provided.
One number for each entry, in %.

Here are 5 compounds together with their reported answers.
COMPOUND: CC(C)(O)c1cc2nn(C3CCN(CCC4CCC5(CC4)CCN(C(=O)c4ccc(F)c(C6CCC(=O)NC6=O)c4)CC5)CC3)cc2cc1NC(=O)c1cccc(C(F)(F)F)n1 (stereo not drawn)
ASSAY RESULT: 53.8
//
COMPOUND: CC(C)(O)c1cc2nn(C3CCN(CCC4CCC5(CC4)CCN(C(=O)c4ccc(F)c(N6CCC(=O)NC6=O)c4)CC5)CC3)cc2cc1NC(=O)c1cccc(C(F)(F)F)n1
ASSAY RESULT: 10.2
//
COMPOUND: COc1cc2nn(C3CCN(CC4CCN(CCOc5ccc6c(c5)C(=O)N(C5CCC(=O)NC5=O)C6=O)CC4)CC3)cc2cc1NC(=O)c1cccc(C(F)(F)F)n1 (stereo not drawn) [Control group 2, reference compound]
ASSAY RESULT: 47.5
//
COMPOUND: CC(C)(O)c1cc2nn(C3CCN(CC4CCC5(CC4)CCN(C(=O)c4ccc(Cl)c(N6CCC(=O)NC6=O)c4)CC5)CC3)cc2cc1NC(=O)c1cccc(C(F)(F)F)n1
ASSAY RESULT: 8.4
//
COMPOUND: CN(CC1CCN(c2cccc3c2C(=O)N(C2CCC(=O)NC2=O)C3=O)CC1)C[C@H]1CC[C@H](n2cc3cc(NC(=O)c4cccc(C(F)(F)F)n4)c(C(C)(C)O)cc3n2)CC1 (stereo partly drawn) [Control group 3, reference compound]
ASSAY RESULT: 97.2

From here, focus on the item given below.
Fill in IKZF1 degradation rate for record Nc1cccc2c1C(=O)N(C1CCC(=O)NC1=O)C2=O (stereo not drawn) [Pomalidomide]
99.7
